B1: TPR t1 (parent)
chain: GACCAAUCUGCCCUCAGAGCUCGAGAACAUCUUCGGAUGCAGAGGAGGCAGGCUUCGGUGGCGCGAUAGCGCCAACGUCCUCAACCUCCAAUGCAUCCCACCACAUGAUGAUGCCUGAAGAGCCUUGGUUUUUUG

- Variants of: B1
- Assay details: polymerase ribozyme fitness, log enrichment relative to wild type (log ratio); higher = more active; in vitro selection for triplet polymerase activity

{"Changes": "C12G G42U C49A G113C U132A", "polymerase ribozyme fitness (log ratio)": -2.5}
{"Changes": "G36U C72G C102U", "polymerase ribozyme fitness (log ratio)": -3.82}
{"Changes": "C12G A29U C49G C82U C115U U133A", "polymerase ribozyme fitness (log ratio)": -2.06}
{"Changes": "A2C A37U C73U G93A G120C", "polymerase ribozyme fitness (log ratio)": -2.44}
{"Changes": "C114U U116A", "polymerase ribozyme fitness (log ratio)": -5.58}
{"Changes": "C11U G57A G63A C101G", "polymerase ribozyme fitness (log ratio)": -3.69}
{"Changes": "G47U C114A", "polymerase ribozyme fitness (log ratio)": -2.77}
{"Changes": "G17U C31U C64G G93U C123A U130A", "polymerase ribozyme fitness (log ratio)": -5.64}
{"Changes": "A29U A83C C124A", "polymerase ribozyme fitness (log ratio)": -0.511}
{"Changes": "C28U G45A", "polymerase ribozyme fitness (log ratio)": -2.04}
{"Changes": "U33C U131A", "polymerase ribozyme fitness (log ratio)": -4.45}
